# System: FLUAV-infected RPE cells
# test-method-notes: Metabolomics of polar metabolites in media of FLUAV-infected RPE cells
# experimental-context: infected RPE cells (FLUAV moi 1), 10 μM, 24 h
measure: levels of many polar metabolites in the media

compound: CC(=O)Oc1ccccc1C(=O)O
result: elevated
--
compound: C#C[C@]1(O)CC[C@H]2[C@@H]3CCc4cc(O)ccc4[C@H]3CC[C@@]21C [17a-ethynylestradiol]
result: elevated
--
compound: CCCCNc1cc(C(=O)O)cc(S(N)(=O)=O)c1Oc1ccccc1 [bumetanide, Bumetanide]
result: elevated
--
compound: CCOC(=O)C1=C(COCCN)NC(C)=C(C(=O)OC)C1c1ccccc1Cl (stereo not drawn)
result: elevated
--
compound: CCOc1nc2cccc(C(=O)O)c2n1Cc1ccc(-c2ccccc2-c2nnn[nH]2)cc1
result: elevated

Incoming: For FLUAV-infected RPE cells, provide levels of many polar metabolites in the media of CC(=O)Nc1ccc(O)cc1 please.
Outgoing: elevated
